Measured MIC values are reported for all entries that follow.
Tested on: Nakaseomyces glabratus
Assay: Antimicrobial activity against Candida glabrata ATCC 90030 after 24 hrs by broth microdilution method
Assay type: functional
Conditions: ATCC 90030, 24 h
Kindly answer with a numeric value in µg/mL, unit omitted.

[
  {
    "item_smiles": "Cc1nc(SCC(=O)c2cccc(Cl)c2)n(Nc2ccc(Cl)cc2)c1C",
    "quantity_unit": "µg/mL",
    "reported": 400
  }
]

Lab note: measured MIC of Cc1ccc(Nn2c(SCC(=O)c3ccc(Cl)c(Cl)c3)nc(C)c2C)cc1 was 800

Field MIC (entry COc1ccc(C(=O)CSc2nc(C)c(C)n2Nc2ccc(Cl)cc2)cc1 ) reads 800

These measurements were taken from ChEMBL document CHEMBL3091428.
